TARGET_ENTITY: human complement C3b protein (human, UniProt P01024 23-667; P01024 749-1663)
Sequence (P01024 23-667 P314L, chain 1 of 2): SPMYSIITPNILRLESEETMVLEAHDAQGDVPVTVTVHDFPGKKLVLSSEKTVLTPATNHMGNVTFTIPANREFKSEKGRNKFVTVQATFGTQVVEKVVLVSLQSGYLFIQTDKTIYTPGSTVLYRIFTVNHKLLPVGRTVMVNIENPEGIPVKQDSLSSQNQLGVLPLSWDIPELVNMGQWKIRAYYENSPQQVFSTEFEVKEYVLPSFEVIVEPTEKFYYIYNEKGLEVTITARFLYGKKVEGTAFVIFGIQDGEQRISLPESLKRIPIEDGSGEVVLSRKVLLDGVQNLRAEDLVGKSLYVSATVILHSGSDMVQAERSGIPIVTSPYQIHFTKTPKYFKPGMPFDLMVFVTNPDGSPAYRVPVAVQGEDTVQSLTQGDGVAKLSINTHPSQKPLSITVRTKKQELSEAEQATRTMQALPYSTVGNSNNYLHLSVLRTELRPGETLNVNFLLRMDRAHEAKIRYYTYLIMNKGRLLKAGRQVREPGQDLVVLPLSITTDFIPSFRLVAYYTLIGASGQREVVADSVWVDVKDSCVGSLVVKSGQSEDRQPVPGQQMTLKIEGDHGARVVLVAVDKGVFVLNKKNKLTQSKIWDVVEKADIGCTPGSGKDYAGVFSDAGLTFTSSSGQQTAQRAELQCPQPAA
Sequence (P01024 749-1663, chain 2 of 2): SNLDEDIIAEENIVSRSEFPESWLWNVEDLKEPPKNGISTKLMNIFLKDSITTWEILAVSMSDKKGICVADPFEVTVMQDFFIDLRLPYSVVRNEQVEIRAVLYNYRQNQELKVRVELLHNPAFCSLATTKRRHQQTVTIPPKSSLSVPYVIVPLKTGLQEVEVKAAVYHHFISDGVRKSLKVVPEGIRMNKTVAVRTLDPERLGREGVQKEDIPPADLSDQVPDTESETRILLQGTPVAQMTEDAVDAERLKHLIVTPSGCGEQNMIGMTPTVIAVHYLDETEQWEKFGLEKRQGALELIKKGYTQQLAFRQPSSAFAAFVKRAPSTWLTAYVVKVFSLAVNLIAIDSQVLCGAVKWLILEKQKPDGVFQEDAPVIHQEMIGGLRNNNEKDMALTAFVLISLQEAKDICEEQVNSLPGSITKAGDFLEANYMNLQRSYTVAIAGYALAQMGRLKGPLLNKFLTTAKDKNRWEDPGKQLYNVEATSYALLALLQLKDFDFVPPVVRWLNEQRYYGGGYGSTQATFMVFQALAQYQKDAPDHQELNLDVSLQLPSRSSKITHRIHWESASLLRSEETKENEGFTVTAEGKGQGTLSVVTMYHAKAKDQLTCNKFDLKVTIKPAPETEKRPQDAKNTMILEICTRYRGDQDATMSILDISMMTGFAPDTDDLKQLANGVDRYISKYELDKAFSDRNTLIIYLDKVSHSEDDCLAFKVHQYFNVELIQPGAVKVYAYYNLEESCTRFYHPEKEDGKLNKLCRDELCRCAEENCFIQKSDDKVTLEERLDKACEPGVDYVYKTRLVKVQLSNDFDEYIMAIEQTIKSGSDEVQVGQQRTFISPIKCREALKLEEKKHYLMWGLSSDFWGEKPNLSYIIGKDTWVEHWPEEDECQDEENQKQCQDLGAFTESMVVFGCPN
ASSAY_COMMENT: cell-based or functional assay
MAC Dep (nM), human serum, IC50 values, listed per item
RESULT_TYPE: MAC Dep (nM), human serum, IC50

{"columns": ["BINDER", "QUANTITY_UNIT", "RECORDED_MEASUREMENT"],
 "data": [
  ["MOR09398 Fab (Fab, V domains shown, also called Fab 9398) VH: QVQLVESGGGLVQPGGSLRLSCAASGFTFSSYWMTWVRQAPGKGLEWVSSIKIKPDGYAASVKGRFTISRDNSKNTLYLQMNSLRAEDTAVYYCARLFYQYFARMDYWGQGTLVTVSS VL: DIQMTQSPSSLSASVGDRVTITCRASQDISNYLNWYQQKPGKAPKLLIYAASNLQSGVPSRFSGSGSGTDFTLTISSLQPEDFATYYCQQWDSFSPTFGQGTKVEIKR", "nM", 1],
  ["MOR09136 Fab (Fab, V domains shown, also called Fab 9136) VH: QVQLVQSGAEVKKPGSSVKVSCKASGGTFSSYTFSWVRQAPGQGLEWMGNILPIFGDANYAQKFQGRVTITADESTSTAYMELSSLRSEDTAVYYCARNKGAFYYMSTYPSLDVWGQGTLVTVSS VL: DIQMTQSPSSLSASVGDRVTITCRASQNINYYLNWYQQKPGKAPKLLIYDAFSLQSGVPSRFSGSGSGTDFTLTISSLQPEDFATYYCQQSWSVPPFTFGQGTKVEIKR", "nM", 2],
  ["MOR09397 Fab (Fab, V domains shown, also called Fab 9397) VH: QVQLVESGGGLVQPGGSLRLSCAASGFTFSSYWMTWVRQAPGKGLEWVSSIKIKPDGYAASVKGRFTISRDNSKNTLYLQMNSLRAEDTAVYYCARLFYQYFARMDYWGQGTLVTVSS VL: DIQMTQSPSSLSASVGDRVTITCRASQDISNYLNWYQQKPGKAPKLLIYAASNLQSGVPSRFSGSGSGTDFTLTISSLQPEDFATYYCQQHDTFRPTFGQGTKVEIKR", "nM", 1]
]}

Cited source: patent US20100291106A1
